- target.desc: Ribosomal protein S6 kinase alpha-3 (Homo sapiens)
- condition.summary: at 1 µM
assay.endpoint: residual activity

Example molecules with recorded residual activity:
{"columns": ["compound.structure.string", "assay.endpoint", "result"],
 "data": [
  ["COc1ccc(S(=O)(=O)N(CCO)c2ccccc2CN(C)C/C=C/c2ccc(Cl)cc2)cc1", "residual activity", "60%"],
  ["c1ccc(-c2n[nH]cc2-c2ccnc3ccccc23)nc1", "residual activity", "60%"]
]}

Data request: Item: O=C1NC(=O)/C(=C\c2ccc3nccnc3c2)S1 Test system: Ribosomal protein S6 kinase alpha-3 (Homo sapiens) Read-out: residual activity Value: ?
Data returned: 61%
